Numbers sourced from PubChem BioAssay AID504577.

method_notes: yeast vacuolar ATPase proton transport modulators – pHLuorin cytosolic pH fluorescence, primary screen (AID 504577); also: actives read high
measurement_context: S. cerevisiae, at 10 µM, stronger effect = higher value
Out of some 350,000 compounds screened, about 1,300 (0.37%) were called active. The list comes from a sample in which actives are over-represented; it also holds close analogues and randomly drawn compounds.
endpoint_label: response

response lookup needed for Cc1cc(C(F)(F)F)nn1CC(=O)N1CCCC1 , thanks. 6.02% (inactive)

response lookup needed for Cc1ccc(C(=O)Nc2nc3ccc(Cl)cc3s2)o1 , thanks. 20.1% (active)

response lookup needed for CCCCn1c(N)c(N(CCOC)C(=O)c2oc3ccc(OC)cc3c2C)c(=O)[nH]c1=O , thanks. 0.93% (inactive)

response lookup needed for COc1cc2c(cc1/C=C1/NC(=O)N(c3ccccc3)C1=O)OCO2 , thanks. 11.3% (active)

response lookup needed for O=C(CN1C(=O)NC2(CCCCC2)C1=O)N1CCN(C(=O)c2cccs2)CC1 , thanks. 1.76% (inactive)

response lookup needed for O=C(CSc1ccccc1)Nc1cccc(S(=O)(=O)N2CCOCC2)c1 , thanks. 0.62% (inactive)

response lookup needed for O=C(CN1CCC(O)(c2cccc(C(F)(F)F)c2)CC1)NCCc1ccccc1 , thanks. 0.05% (inactive)

response lookup needed for Cc1sc2ncnc(N3CCC(C(=O)Nc4nc5ccc(Cl)cc5s4)CC3)c2c1C , thanks. 0.27% (inactive)

response lookup needed for C=CCOC(=O)N1CCC2CC1c1cc(-c3ccc(OC)cc3)ccc12 (configuration not stated) , thanks. -1.16% (inactive)

response lookup needed for Oc1c(CN2CCCC2)cc(COCc2ccccc2)c2cccnc12 , thanks. -2.51% (inactive)

response lookup needed for Nc1cc(N)nc(SCC(=O)Nc2cccc(S(=O)(=O)N3CCCCC3)c2)n1 , thanks. 5.46% (inactive)

response lookup needed for COc1ccc(CCN2C(=O)N(c3ccc(OC)cc3)C(=O)C2CC(=O)Nc2ccc(OC)cc2)cc1 (configuration not stated) , thanks. 9.93% (active)

response lookup needed for O=C(COC(=O)c1ccccc1Br)Nc1nnc(-c2ccccc2)o1 , thanks. 10.2% (active)

response lookup needed for COc1ccc(S(=O)(=O)N2CCC(C(=O)OCC(=O)c3ccccc3)CC2)cc1[N+](=O)[O-] , thanks. -4.5% (inactive)

response lookup needed for COc1ccc(N2C(=O)C(CC(=O)Nc3ccc(F)cc3)N(CCc3cccs3)C2=O)cc1 (configuration not stated) , thanks. -0.54% (inactive)

response lookup needed for COc1ccc2nc(N3C(=O)C(O)=C(C(=O)c4ccco4)C3c3ccco3)sc2c1 (configuration not stated) , thanks. -1.37% (inactive)

response lookup needed for COc1ccccc1C(=O)NCC(=O)OCC(=O)Nc1nnc(-c2ccccc2)o1 , thanks. -1.03% (inactive)

response lookup needed for CC(=O)Nc1ccccc1C(=O)C(=O)Nc1ccc(F)cc1 , thanks. 1.43% (inactive)

response lookup needed for COc1ccc(N2CCN(C(=O)CCNC(=O)c3ccc(Br)cc3)CC2)cc1 , thanks. -3.69% (inactive)

response lookup needed for O=C(COc1cc2oc(=O)c3c(c2cc1Cl)CCC3)NCCCN1CCOCC1 , thanks. 9.9% (active)

response lookup needed for Cc1cc(=O)oc2c(C)c(OCC(=O)NCCN3CCOCC3)ccc12 , thanks. 1.98% (inactive)

response lookup needed for NC(=O)c1ccc(-c2csnn2)cc1 , thanks. 0.79% (inactive)

response lookup needed for C#CCN(C[C@@H]1[C@@H](OC(=O)NC2CC2)[C@@H](OC(=O)NC2CC2)Cn2c(=O)ccc(=O)n21)S(=O)(=O)c1ccc(C)cc1 , thanks. -0.61% (inactive)

response lookup needed for COc1ccc(Cc2nnc(NC(=O)c3cc(OC)c(OC)c(OC)c3)s2)cc1OC , thanks. -0.03% (inactive)

response lookup needed for CCCCN=C1N/C(=C\c2ccco2)C(=O)N1c1ccccc1 , thanks. 2.17% (inactive)

response lookup needed for COc1ccc(/C=C2/C(=O)N(c3ccccc3)N=C2C)c(OC)c1 , thanks. -0.07% (inactive)

response lookup needed for CC1(c2nnc(-c3ccncc3)o2)CC(c2cccnc2)=NO1 (configuration not stated) , thanks. 0.16% (inactive)
